The reported measurements were obtained from paper PMC12772459.

- assay_system: GluN1/2A receptors (Rattus norvegicus, UniProt P35439+Q00959)
- Format: cell-based
- test_context: read-out: IC50 (95% CI); […] μM glycine, 100 μM glutamate
quantity_kind: IC50 (µM)
// note: answer is a bare numeric in µM

O=C(NNC(=O)c1ccc(CNS(=O)(=O)c2ccc(F)c(Cl)c2)cc1)c1ccccc1 = 0.1

Now for a further compound.
IC50 reading for O=C(CSc1nnc(NCc2ccccc2)s1)NCC1CCCCC1 : 0.83

----------
- assay_system: GluN1/2A-T797S (Rattus norvegicus, UniProt P35439+Q00959, T797S)
- Sequence (Q00959 23-1464 T797S, other chains not shown): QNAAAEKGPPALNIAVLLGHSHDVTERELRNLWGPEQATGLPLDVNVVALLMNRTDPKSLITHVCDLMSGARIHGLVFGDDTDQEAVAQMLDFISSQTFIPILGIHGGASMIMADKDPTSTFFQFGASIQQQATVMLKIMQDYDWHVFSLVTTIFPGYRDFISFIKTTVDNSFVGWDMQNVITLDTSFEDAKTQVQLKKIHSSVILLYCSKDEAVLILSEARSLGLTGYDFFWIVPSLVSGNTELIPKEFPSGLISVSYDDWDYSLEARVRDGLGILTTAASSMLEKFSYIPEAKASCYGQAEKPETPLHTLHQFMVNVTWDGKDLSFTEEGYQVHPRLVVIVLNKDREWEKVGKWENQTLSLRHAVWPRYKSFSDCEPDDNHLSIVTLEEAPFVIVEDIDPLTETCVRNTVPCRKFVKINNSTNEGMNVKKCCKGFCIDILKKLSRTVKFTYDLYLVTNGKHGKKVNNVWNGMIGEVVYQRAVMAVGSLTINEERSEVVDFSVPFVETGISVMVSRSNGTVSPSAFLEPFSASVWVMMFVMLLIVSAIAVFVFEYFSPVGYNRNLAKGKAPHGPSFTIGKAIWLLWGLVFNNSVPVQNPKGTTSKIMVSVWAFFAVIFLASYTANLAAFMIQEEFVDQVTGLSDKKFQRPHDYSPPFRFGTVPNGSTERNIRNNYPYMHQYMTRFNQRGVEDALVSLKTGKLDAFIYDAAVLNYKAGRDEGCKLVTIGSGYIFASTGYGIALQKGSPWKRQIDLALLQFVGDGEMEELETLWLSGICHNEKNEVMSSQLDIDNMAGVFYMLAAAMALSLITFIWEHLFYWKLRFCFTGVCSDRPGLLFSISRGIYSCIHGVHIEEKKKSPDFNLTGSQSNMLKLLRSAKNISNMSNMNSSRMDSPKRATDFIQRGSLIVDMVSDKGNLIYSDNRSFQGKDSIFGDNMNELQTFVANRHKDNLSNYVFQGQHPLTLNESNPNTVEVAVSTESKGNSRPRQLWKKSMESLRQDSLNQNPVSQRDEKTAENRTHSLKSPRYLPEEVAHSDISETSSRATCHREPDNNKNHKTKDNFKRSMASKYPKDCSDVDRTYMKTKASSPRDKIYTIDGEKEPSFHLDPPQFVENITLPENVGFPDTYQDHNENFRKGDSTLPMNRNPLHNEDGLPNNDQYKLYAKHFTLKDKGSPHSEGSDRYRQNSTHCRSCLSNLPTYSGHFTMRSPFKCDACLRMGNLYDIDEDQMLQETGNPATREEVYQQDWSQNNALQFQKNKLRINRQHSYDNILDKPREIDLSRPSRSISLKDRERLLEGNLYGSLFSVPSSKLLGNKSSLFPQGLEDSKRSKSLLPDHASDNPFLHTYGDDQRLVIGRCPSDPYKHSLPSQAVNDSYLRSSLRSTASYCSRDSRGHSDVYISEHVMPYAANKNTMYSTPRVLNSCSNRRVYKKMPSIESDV
- assay_explanation: Two-electrode voltage-clamp recordings, mutant GluN1/2A-T797S
- Format: cell-based
- test_context: read-out: IC50 (95% CI); […] μM glycine, 300 μM glutamate
quantity_kind: IC50 (µM)
// note: answer is a bare numeric in µM

The reported GluN1/2A-T797S (Rattus norvegicus, UniProt P35439+Q00959, T797S) IC50 of O=C(NNC(=O)c1ccc(CNS(=O)(=O)c2ccc(F)c(Cl)c2)cc1)c1ccccc1 [TCN-201] is 0.068

----------
- assay_system: GluN1/2A-Y754K (Rattus norvegicus, UniProt P35439+Q00959, Y754K)
- assay_explanation: Two-electrode voltage-clamp recordings, mutant GluN1/2A-Y754K
- Format: cell-based
- test_context: read-out: IC50 (95% CI); […] μM glycine, 300 μM glutamate
quantity_kind: IC50 (µM)
// note: answer is a bare numeric in µM

IC50 reading for O=C(CSc1nnc(NCc2ccccc2)s1)NCC1CCCCC1 : 1.2

----------
- assay_system: GluN1/2A-I755V (Rattus norvegicus, UniProt P35439+Q00959, I755V)
- Sequence (Q00959 23-1464 I755V, other chains not shown): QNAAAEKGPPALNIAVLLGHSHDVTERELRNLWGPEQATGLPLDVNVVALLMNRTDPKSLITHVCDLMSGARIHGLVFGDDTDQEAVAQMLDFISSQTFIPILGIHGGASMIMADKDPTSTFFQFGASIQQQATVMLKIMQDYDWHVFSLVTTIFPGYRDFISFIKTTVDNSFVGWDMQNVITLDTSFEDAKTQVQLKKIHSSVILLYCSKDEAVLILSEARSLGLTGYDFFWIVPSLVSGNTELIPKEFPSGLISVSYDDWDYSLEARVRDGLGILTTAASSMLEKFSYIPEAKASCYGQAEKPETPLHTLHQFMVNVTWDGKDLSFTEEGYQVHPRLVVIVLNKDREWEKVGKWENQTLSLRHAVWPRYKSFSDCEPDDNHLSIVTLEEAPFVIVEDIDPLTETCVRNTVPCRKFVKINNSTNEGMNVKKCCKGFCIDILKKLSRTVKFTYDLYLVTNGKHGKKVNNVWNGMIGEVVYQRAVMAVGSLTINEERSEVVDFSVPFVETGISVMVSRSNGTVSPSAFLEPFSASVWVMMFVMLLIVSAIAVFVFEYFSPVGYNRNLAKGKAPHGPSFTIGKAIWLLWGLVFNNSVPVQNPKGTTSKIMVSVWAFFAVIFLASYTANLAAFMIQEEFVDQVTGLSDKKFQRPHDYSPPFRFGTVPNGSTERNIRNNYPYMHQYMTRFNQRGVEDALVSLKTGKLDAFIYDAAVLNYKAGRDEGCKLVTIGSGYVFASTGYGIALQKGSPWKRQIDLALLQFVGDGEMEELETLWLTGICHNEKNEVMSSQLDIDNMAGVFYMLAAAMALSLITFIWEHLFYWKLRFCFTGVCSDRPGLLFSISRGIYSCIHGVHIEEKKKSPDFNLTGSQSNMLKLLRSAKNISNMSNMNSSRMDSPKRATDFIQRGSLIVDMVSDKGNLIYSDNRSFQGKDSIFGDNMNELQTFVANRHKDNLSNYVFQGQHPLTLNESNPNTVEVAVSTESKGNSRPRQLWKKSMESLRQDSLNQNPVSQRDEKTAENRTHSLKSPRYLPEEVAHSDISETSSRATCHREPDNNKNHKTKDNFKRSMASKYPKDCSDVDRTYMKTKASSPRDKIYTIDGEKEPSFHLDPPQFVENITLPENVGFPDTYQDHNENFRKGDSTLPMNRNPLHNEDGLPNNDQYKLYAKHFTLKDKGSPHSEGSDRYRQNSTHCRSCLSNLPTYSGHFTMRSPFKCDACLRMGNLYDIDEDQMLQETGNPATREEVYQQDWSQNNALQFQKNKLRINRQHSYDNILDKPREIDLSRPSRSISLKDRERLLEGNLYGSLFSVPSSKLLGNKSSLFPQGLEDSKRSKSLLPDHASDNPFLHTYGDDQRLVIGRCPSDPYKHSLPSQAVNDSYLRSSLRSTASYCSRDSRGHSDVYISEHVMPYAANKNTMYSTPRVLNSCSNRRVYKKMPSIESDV
- assay_explanation: Two-electrode voltage-clamp recordings, mutant GluN1/2A-I755V
- Type: cell-based
- test_context: read-out: IC50 (95% CI); […] μM glycine, 300 μM glutamate
quantity_kind: IC50 (µM)
// note: answer is a bare numeric in µM

IC50 reading for O=C(CSc1nnc(NCc2ccccc2)s1)NCC1CCCCC1 : 1.2

----------
- assay_system: GluN1/2A-E789Q (Rattus norvegicus, UniProt P35439+Q00959, E789Q)
- Sequence (Q00959 23-1464 E789Q, other chains not shown): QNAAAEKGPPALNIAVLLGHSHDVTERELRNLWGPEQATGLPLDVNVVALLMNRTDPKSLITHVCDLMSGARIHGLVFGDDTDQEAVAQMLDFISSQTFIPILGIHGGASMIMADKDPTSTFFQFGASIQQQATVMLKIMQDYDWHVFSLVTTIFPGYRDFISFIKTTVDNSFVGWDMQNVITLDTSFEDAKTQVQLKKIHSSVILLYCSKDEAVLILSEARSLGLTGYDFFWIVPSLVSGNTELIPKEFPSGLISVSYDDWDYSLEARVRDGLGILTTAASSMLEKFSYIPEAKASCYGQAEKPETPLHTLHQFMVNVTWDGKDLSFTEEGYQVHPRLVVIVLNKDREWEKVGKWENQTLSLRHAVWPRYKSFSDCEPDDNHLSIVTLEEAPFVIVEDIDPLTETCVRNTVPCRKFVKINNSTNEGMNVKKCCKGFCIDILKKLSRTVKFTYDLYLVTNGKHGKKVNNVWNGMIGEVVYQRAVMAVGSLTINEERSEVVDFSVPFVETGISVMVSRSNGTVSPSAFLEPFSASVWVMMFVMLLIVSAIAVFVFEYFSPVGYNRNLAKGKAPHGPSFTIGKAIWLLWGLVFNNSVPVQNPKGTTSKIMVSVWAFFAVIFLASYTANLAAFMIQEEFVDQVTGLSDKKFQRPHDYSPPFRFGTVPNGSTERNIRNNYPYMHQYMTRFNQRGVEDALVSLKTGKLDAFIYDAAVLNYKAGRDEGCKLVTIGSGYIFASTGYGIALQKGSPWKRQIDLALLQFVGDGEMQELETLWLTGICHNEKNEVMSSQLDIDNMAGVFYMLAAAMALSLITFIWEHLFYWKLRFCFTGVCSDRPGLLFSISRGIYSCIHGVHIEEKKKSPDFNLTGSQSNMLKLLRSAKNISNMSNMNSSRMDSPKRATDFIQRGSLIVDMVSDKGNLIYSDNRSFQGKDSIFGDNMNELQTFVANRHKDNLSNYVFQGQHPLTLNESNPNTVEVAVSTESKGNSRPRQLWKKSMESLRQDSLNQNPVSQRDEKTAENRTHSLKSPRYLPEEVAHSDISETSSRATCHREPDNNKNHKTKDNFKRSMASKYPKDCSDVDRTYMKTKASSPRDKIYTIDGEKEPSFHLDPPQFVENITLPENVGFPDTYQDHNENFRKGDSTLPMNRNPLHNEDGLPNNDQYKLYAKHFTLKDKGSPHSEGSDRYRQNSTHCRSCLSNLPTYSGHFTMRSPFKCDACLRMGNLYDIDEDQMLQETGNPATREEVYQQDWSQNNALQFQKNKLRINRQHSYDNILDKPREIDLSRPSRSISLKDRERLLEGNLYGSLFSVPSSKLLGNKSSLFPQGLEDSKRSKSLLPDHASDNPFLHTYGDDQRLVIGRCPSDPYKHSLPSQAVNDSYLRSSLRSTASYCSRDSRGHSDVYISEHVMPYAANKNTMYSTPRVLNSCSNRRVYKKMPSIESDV
- assay_explanation: Two-electrode voltage-clamp recordings, mutant GluN1/2A-E789Q
- Format: cell-based
- test_context: read-out: IC50 (95% CI); […] μM glycine, 300 μM glutamate
quantity_kind: IC50 (µM)
// note: answer is a bare numeric in µM

IC50 reading for O=C(NNC(=O)c1ccc(CNS(=O)(=O)c2ccc(F)c(Cl)c2)cc1)c1ccccc1 [TCN-201] : 0.078

----------
- assay_system: GluN1/2A-M788I (Rattus norvegicus, UniProt P35439+Q00959, M788I)
- assay_explanation: Two-electrode voltage-clamp recordings, mutant GluN1/2A-M788I
- Type: cell-based
- test_context: read-out: IC50 (95% CI); […] μM glycine, 300 μM glutamate
quantity_kind: IC50
Please answer using the number first and the unit second.

IC50 reading for O=C(NNC(=O)c1ccc(CNS(=O)(=O)c2ccc(F)c(Cl)c2)cc1)c1ccccc1 [TCN-201] : 0.12 µM

----------
- assay_system: triheteromeric GluN1/2A/2B receptors
- Format: cell-based, rat
- test_context: read-out: IC50 (95% CI); […] μM glycine, 100 μM glutamate
quantity_kind: IC50 (µM)
// note: answer is a bare numeric in µM

O=C(NNC(=O)c1ccc(CNS(=O)(=O)c2ccc(F)c(Cl)c2)cc1)c1ccccc1 [TCN-201] = 0.28

IC50 reading for O=C(CSc1nnc(NCc2ccccc2)s1)NCC1CCCCC1 [TCN-213] : 4

----------
- assay_system: GluN1/2A receptors (Rattus norvegicus, UniProt P35439+Q00959)
- Format: cell-based
- test_context: read-out: IC50 (95% CI); […] μM glycine, 10 μM glutamate
quantity_kind: IC50 (µM)
// note: answer is a bare numeric in µM

IC50 reading for O=C(CSc1nnc(NCc2ccccc2)s1)NCC1CCCCC1 : 0.96
